Entry source: PubChem BioAssay AID485317

# Experimental System: FAD-linked sulfhydryl oxidase ALR (Homo sapiens) (UniProt P55789)
# Sequence (P55789 whole entry, looked up): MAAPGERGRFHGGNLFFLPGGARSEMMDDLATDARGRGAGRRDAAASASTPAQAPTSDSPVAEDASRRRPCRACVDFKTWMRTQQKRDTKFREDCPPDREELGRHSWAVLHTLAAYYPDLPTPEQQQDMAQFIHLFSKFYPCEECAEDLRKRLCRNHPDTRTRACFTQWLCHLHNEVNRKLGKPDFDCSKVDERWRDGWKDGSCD
# Assay Name: ALR-catalysed DTT oxidation blockers – biochemical, H2O2 detection, HRP-luminol luminescence, single point, primary screen (AID 485317)
# Assay Setup: purified ALR, concentration not given here
Hit rate of the full screen: of about 290,000 compounds, about 11,000 (3.8%) were called active.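 Rule for the calls: active = mean replicate inhibition above about 79%, with every replicate also reaching it (limit read from the data); inconclusive = only one of the two criteria met; inactive = mean below limit and not every replicate reaching it.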 For the sample, actives were picked, then their nearest neighbours and some compounds at random.
Parameter call: string, one of 1.0 (active), 0.0 (inactive)

O=c1cnnc(Nc2ccccc2)[nH]1    0.0
COC(=O)C1=C(C)N(Cc2ccccc2)C(=NCCCOC(C)C)N[C@H]1c1ccccc1    0.0
CC1Sc2ccc(C(=O)NCc3ccccc3Cl)cc2NC1=O (stereo not drawn)    0.0
COc1ccc(C(=O)Nc2cc(S(=O)(=O)N3CCCC3)ccc2Cl)cc1    0.0
CC1CCCCC1NC(=O)/C(C#N)=C/C=C/c1ccccc1[N+](=O)[O-] (stereo not drawn)    1.0

Attention now shifts to the item below.
State the result this test recorded for `CC(C)n1c(COc2ccccc2)nc2ccccc21` . 0.0
